Assay: method code G-GLC, from Herzke, D.; Rotard, W. (1999). Physical-chemical properties of polyfluorinated dibenzodioxins and dibenzofurans. Organohalogen Compounds, 41, 171-174.
readout name: logP

INSERT INTO measurements (compound_string, value_observed) VALUES
  ('Fc1ccc2c(c1)Oc1c(F)c(F)c(F)c(F)c1O2', 3.6),
  ('Fc1cc(F)c2c(c1F)Oc1c(F)c(F)cc(F)c1O2', 3.1),
  ('Fc1cc2c(oc3ccccc32)c(F)c1F', 3.4),
  ('Clc1cc2c(oc3ccccc32)c(Cl)c1Cl', 6.4),
  ('Fc1ccc2c(c1)Oc1ccc(F)cc1O2', 3.3),
  ('Fc1cc2c(c(F)c1F)Oc1c(F)cc(F)c(F)c1O2', 3.1),
  ('Fc1cc2c(cc1F)Oc1cc(F)c(F)cc1O2', 3.5),
  ('Fc1ccc2oc3c(F)c(F)c(F)c(F)c3c2c1F', 4.4),
  ('Clc1ccc2oc3ccccc3c2c1Cl', 5.6),
  ('Fc1cc2c(cc1F)Oc1c(F)c(F)c(F)c(F)c1O2', 3.8),
  ('Fc1cc2oc3c(F)c(F)c(F)c(F)c3c2cc1F', 4),
  ('Fc1c(F)c(F)c2c(c1F)Oc1c(F)c(F)c(F)c(F)c1O2', 3),
  ('Clc1c(Cl)c(Cl)c2c(c1Cl)Oc1c(Cl)c(Cl)c(Cl)c(Cl)c1O2', 8.2),
  ('Clc1ccc2c(c1)Oc1ccc(Cl)cc1O2', 5.7);
